- Target: human JAK1 catalytic kinase (JH1) domain (Homo sapiens (Human), UniProt P23458)
- Sequence (P23458 875-1153): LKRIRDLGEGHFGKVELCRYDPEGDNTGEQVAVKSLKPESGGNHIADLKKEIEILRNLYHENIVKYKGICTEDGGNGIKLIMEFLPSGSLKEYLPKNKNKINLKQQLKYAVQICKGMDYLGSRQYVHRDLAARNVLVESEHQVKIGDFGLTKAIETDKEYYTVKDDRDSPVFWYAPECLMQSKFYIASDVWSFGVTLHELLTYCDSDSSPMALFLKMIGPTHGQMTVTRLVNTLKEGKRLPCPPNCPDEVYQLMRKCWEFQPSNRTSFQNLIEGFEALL
- Test: ADP-Glo Kinase Assay, recombinant JAK1 catalytic kinase (JH1) domain
- Assay type: biochemical
- Stated conditions: recombinant JH1 domain 4 nM, 35 μM ATP, JAK3-342 peptide, mean, read-out: JAK1 biochem IC50 (nM) Mean
// NB: equality with 600 nM counts as Not met; only IC50 strictly below is Met

query: # check: IC50 < 600 nM for `Cn1cc(-c2cc3c(N4CC5CCC(C4)N5C(=O)C4CC4)ccnn3c2)cn1`
result: Not met

query: # check: IC50 < 600 nM for `COc1cc(-c2nc3c(N4CC5CCC(C4)N5S(=O)(=O)C4CC4)ccnc3[nH]2)ccn1`
result: Met

query: # check: IC50 < 600 nM for `Cn1cc(-c2cc3nccc(N4CC5CCC(C4)N5C(=O)[C@@H]4C[C@H]4F)n3n2)cn1`
result: Met

query: # check: IC50 < 600 nM for O=C([C@H]1C[C@@H]1F)N1C2CCC1CN(c1ncnn3cc(-c4cnn(C(F)F)c4)cc13)C2 (racemic) [Example 54]
result: Not met

query: # check: IC50 < 600 nM for N#CC1CC(C(=O)N2C3CCC2CN(c2ncnn4cc(-c5cnn(C(F)F)c5)cc24)C3)C1 (stereo not drawn)
result: Not met

query: # check: IC50 < 600 nM for `O=C(C1CC1)N1C2CCC1CN(c1ncnn3cc(-c4cccnc4)cc13)C2`
result: Not met

query: # check: IC50 < 600 nM for `CNc1nccc(-c2cc3c(N4CC5CCC(C4)N5C(=O)[C@@H]4C[C@H]4F)ccnn3c2)n1`
result: Met

query: # check: IC50 < 600 nM for O=C(C1CC1)N1C2CCC1CN(c1ncnn3cc(-c4cnn(C(F)F)c4)cc13)C2 [Example 150]
result: Not met

query: # check: IC50 < 600 nM for `O=C(C1CC1)N1C2CCC1CN(c1ncnn3cc(-c4cnn(C(F)F)c4)c(F)c13)C2`
result: Not met

query: # check: IC50 < 600 nM for O=C([C@H]1C[C@@H]1CO)N1C2CCC1CN(c1ncnn3cc(-c4cnn(C(F)F)c4)cc13)C2 (racemic) [Example 38]
result: Not met

query: # check: IC50 < 600 nM for `CC(C)C(=O)N1C2CCC1CN(c1ncnn3cc(-c4cnn(C(F)F)c4)cc13)C2`
result: Not met

query: # check: IC50 < 600 nM for O=C([C@@H]1C[C@H]1F)N1C2CCC1CN(c1ccnn3cc([C@@H]4CC4(F)F)cc13)C2 (single isomer, unassigned)
result: Not met

query: # check: IC50 < 600 nM for `Cn1cc(-c2cn3nccc(N4CC5CCC(C4)N5C(=O)[C@@H]4C[C@H]4F)c3n2)cn1`
result: Met

query: # check: IC50 < 600 nM for `O=C([C@H]1C[C@H](C(F)(F)F)C1)N1C2CCC1CN(c1ncnn3cc(-c4cnn(C(F)F)c4)cc13)C2`
result: Not met

query: # check: IC50 < 600 nM for `Cn1cc(-c2cc3c(N4CC5CCC(C4)N5C(=O)[C@@H]4CC4(F)F)ncnn3c2)cn1`
result: Not met

---

- Target: human JAK3 catalytic kinase (JH1) domain (Homo sapiens (Human), UniProt P52333)
- Sequence (P52333 822-1111): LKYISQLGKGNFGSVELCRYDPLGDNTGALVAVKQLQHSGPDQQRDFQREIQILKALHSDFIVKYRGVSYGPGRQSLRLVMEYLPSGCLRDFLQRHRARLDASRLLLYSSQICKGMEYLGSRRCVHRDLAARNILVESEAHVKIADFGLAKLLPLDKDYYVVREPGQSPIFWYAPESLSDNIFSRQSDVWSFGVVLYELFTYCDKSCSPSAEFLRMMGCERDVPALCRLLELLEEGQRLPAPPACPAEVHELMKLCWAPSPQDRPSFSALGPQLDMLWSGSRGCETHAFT
- Test: ADP-Glo Kinase Assay, recombinant JAK3 catalytic kinase (JH1) domain
- Format: biochemical
- Stated conditions: recombinant JH1 domain 0.3 nM, 4 μM ATP, JAK3-974 peptide, mean, read-out: JAK3 biochem IC50 (nM) Mean
- Experimental: Compounds of the disclosure were assessed for their ability to inhibit TYK2, JAK1, JAK2, and JAK3 activity. The inhibitory properties of the compounds of the disclosure described herein can be evidenced by testing in any one of the following protocols. The kinase activity of recombinantly generated catalytic kinase (also known as JH1) domain of human JAK1, JAK2, JAK3 and TYK2 were evaluated in a plate-based assay using the ADP-Glo™ Kinase Assay platform. […]
Counter-ions that a name gives are not always drawn.
Metric: IC50 (nM)
// note: answer is a bare numeric in nM

query: Any idea what IC50 was measured for CC(C(=O)N1C2CCC1CN(c1ncnn3cc(-c4cnn(C(F)F)c4)cc13)C2)C(F)(F)F (stereo not shown) [Example 31, trifluoroacetate] ?
result: 6320

query: Any idea what IC50 was measured for `O=C(C1CC1)N1C2CCC1CN(c1ncnn3cc(-c4ccc5nncn5c4)cc13)C2` ?
result: 6270

query: Any idea what IC50 was measured for `Cn1cc(-c2nc3c(N4CC5CCC(C4)N5C(=O)[C@@H]4CC4(F)F)ccnc3[nH]2)cn1` ?
result: 164

query: Any idea what IC50 was measured for `O=C([C@H]1C[C@@H](C(F)(F)F)C1)N1C2CCC1CN(c1ncnn3cc(-c4cnn(C(F)F)c4)cc13)C2` ?
result: 7470

All values here come from patent US20240360157A1.
